Reported values of Potency EC50 (nM), ferroportin-GFP internalization/degradation for individual entries
Target: T1, human ferroportin (SLC40A1) fused in frame with GFP, stably expressed in HEK293 cells (human, UniProt Q9NP59 1-571)
T1 sequence (looked up): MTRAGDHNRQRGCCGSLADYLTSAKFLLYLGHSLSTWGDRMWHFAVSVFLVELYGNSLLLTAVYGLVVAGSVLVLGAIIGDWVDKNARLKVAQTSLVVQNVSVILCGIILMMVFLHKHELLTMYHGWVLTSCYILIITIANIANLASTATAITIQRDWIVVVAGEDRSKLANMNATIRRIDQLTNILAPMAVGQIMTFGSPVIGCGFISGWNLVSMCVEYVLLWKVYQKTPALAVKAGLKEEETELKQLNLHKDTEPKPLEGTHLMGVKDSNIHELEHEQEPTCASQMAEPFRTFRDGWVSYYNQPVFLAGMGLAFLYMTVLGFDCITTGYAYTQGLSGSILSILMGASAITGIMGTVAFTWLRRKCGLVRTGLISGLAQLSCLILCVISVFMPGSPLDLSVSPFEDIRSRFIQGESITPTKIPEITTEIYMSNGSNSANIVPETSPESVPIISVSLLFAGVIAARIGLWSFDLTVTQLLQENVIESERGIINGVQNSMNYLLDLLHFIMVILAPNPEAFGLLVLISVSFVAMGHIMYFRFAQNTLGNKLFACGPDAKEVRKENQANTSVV
Assay: cell-based or functional assay
Bridge positions count the residues as written; N and C are the ends.

The following binders have reported results that may help.
binder	readout.value
H-DTHFPIAIFAAGICI-NH2 [Hy-DTHFPIAIFAAGICI-NH2]	> 10000 nM
H-DTHFPCIIFGPRSKGWVACY-NH2 (not fully specified (bridges); printed as Hy-DTHFPCIIFGPRSKGWVACY-NH2; cysteine pairing not given here) [Hy-DTHFPCIIFGPRSKGWVACY-NH2]	> 10000 nM

Query block: Given H-DTHFPCIIFKC-NH2 (disulfide 6-11 (inferred)) [Hy-DTHFPCIIFKC-NH2] , state its recorded Potency EC50 (nM), ferroportin-GFP internalization/degradation.
Result block: 6400 nM
